Target: T1, microbial transglutaminase from Streptomyces mobaraensis (MTG) (Streptomyces mobaraensis, UniProt P81453 77-407)
T1 sequence (looked up): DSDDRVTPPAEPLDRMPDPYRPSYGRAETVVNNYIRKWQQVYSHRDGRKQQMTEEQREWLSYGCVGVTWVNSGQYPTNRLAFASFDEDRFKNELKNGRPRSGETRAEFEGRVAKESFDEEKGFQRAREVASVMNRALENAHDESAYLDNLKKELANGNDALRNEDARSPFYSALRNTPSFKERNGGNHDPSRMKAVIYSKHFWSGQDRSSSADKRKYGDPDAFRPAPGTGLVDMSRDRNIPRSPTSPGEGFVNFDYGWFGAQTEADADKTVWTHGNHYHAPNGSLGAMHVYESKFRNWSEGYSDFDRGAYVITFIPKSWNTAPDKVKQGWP
Assay: cell-based or functional assay
No end group written: not given here.
# Log2(signal), array MTG labeling with N-(Biotinyl)cadaverine annotations
MEASURED ENDPOINT: Log2(signal), array MTG labeling with N-(Biotinyl)cadaverine

{"BINDER": "DYVAQ [DYVAQ (SEQ ID NO: 20)]", "EXPERIMENTAL VALUE": "15.2 Log2(signal)"}
{"BINDER": "HYALQ (also: flanked by G:S (3:1) linkers on peptide array) [HYALQ (SEQ ID NO: 19)]", "EXPERIMENTAL VALUE": "15.2 Log2(signal)"}
{"BINDER": "DFALQ [DFALQ (SEQ ID NO: 7)]", "EXPERIMENTAL VALUE": "15.4 Log2(signal)"}
{"BINDER": "DYTLQ [DYTLQ (SEQ ID NO: 11)]", "EXPERIMENTAL VALUE": "15.3 Log2(signal)"}

These data points were gathered from patent US20170314054A1.
